experiment: chemical genetic growth profiling, strain panel (AID 1159580);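 also: tested at 20 µM; growth read once vehicle control cultures reached saturation at 30 °C; 1 = growth at the plate median or of vehicle wells; lower values mean less growth of the strain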; details: S. cerevisiae deletion strains, growth OD, locus YGL248W, strain PDE1
Out of some 5,500 compounds screened, about 2,000 (36%) were called active. Roughly 18% stayed inconclusive and do not appear here. Rule as the data show it: active = normalized growth mostly below about 0.91 (no sharp cut-off); inconclusive = no clear call, values can overlap the other calls; inactive = mostly above about 0.92. The list shows a part of the results.
Answer with one of the outcomes active, inactive

Examples from the recorded data:
C[N+](C)(C)CC(O)CC(=O)O (stereo unspecified) ... inactive
CC(C)N(CCC(C(N)=O)(c1ccccc1)c1ccccn1)C(C)C (stereo unspecified) ... inactive
OCC(O)C(O)C(O)C(O)C(O)CO (stereo unspecified) ... inactive

Now look at this one.
[ask] Could you kindly confirm the outcome this assay logged for CC(=O)[C@@]1(O)CCC2C3C[C@H](C)C4=CC(=O)C=CC4(C)[C@@]3(F)[C@@H](O)C[C@@]21C (stereo partly specified) ?
[reply] inactive

====

experiment: chemical genetic growth profiling, strain panel (AID 1159580); details: S. cerevisiae deletion strains, growth OD, locus YLR102C, strain apc9
The campaign covered roughly 5,500 compounds. About 2,000 (36%) were called active. Inconclusive results (about 18%) are left out. Cut-off read from the data, not from the text of the source: active = normalized growth mostly below about 0.91 (no sharp cut-off); inconclusive = no clear call, values can overlap the other calls; inactive = mostly above about 0.92. Some of the results follow.
Give your call using only these classes: 1 for active, -1 for inactive

[ask] For COc1ccc2c3c1OC1C(O)CC=C4C(C2)N(C)CCC431 (stereo not given) , which call appears in the assay record?
[reply] -1

[ask] GET /call?item= `O=C(O[C@@H]1Cc2c(O)cc(O)cc2O[C@@H]1c1cc(O)c(=O)c2c(O)c(O)cc([C@H]3Oc4cc(O)cc(O)c4C[C@H]3OC(=O)c3cc(O)c(O)c(O)c3)c2c1)c1cc(O)c(O)c(O)c1` returns the recorded outcome of this test.
[reply] -1

[ask] Recorded test call requested for Oc1ccc2c(c1)OCC1(O)Cc3cc(O)c(O)cc3C21 (stereo not given)
[reply] -1

[ask] Answer briefly: the call reported for CCC1OC(=O)[C@H](C)C(=O)[C@H](C)[C@@H](OC2O[C@H](C)C[C@H](N(C)C)[C@H]2O)[C@](C)(OC)C2(CCCn3cnc(-c4cccnc4)c3)C[C@@H](C)C(=O)[C@H](C)[C@H]3N(C2)C(=O)O[C@]13C (stereo not given in full) in this assay.
[reply] -1

[ask] Test call for this compound, please: O=C1C=C2C(=CCOC2O)O1 (stereo not given)
[reply] -1

[ask] Assay result, entry COC(=O)[C@@]1(C)CCC[C@]2(C)c3ccc(O)c(C(C)C)c3CCC12 (stereo not given in full) — outcome?
[reply] -1

[ask] // outcome(item) with item = `NC(=O)c1ncn([C@@H]2O[C@H](CO)[C@@H](O)[C@H]2O)n1`
[reply] -1

[ask] For `COc1ccc(Cl)cc1C(=O)NCCc1ccc(S(=O)(=O)NC(=O)NC2CCCCC2)cc1` , which call appears in the assay record?
[reply] -1

[ask] Tell me the recorded outcome of this test for Cc1ccccc1OCC(O)CO (stereo not given) .
[reply] -1

[ask] Dear all, I need the recorded test outcome for NS(=O)(=O)c1cc(C2(O)NC(=O)c3ccccc32)ccc1Cl (stereo not given) , thank you.
[reply] -1

[ask] Dear all, I need the recorded test outcome for Oc1cc2c(cc1O)C1c3ccc(O)c(O)c3OCC1(O)C2 (stereo not given) , thank you.
[reply] -1

[ask] Test call, this compound: OCC(O)C(O)C(O)C(O)C(O)CO (stereo not given)
[reply] -1

[ask] Dear all, I need the recorded test outcome for C[C@]12CCC3c4ccc(O)cc4CCC3C1CC[C@@H]2O (stereo not given in full) , thank you.
[reply] -1

====

assay: chemical genetic growth profiling, strain panel (AID 1159580); settings: S. cerevisiae deletion strains, growth OD, locus YDR502C, strain sam2
In all, about 5,500 compounds went through this assay and about 2,000 (36%) were called active. Not shown: some 18% with an inconclusive outcome. No stated cut-off is given here; in the data, active means normalized growth mostly below about 0.91 (no sharp cut-off); inconclusive means no clear call, values can overlap the other calls; inactive means mostly above about 0.92. This is one part of the list.
Hi there, use one of these labels in your reply, thanks! 1 for active, -1 for inactive

Before answering, review these 4 worked examples.
NC(=O)c1ncn([C@@H]2O[C@H](CO)[C@@H](O)[C@H]2O)n1 ... -1
COc1ccc(-c2oc3cc(O[C@H]4O[C@H](CO)[C@@H](O)[C@H](O)[C@H]4O)c(OC)c(O)c3c(=O)c2OC)cc1O ... -1
COc1ccc2c(c1)CCC1C2CCC2(C)C1C[C@@H](O)C2O (stereo partly drawn) ... -1
CC(CC(O)C1OC1(C)C)[C@@H]1CCC2(C)C3=CCC4C(C)(C)C(=O)CCC4(C)C3CC[C@@]12C (stereo partly drawn) ... -1

[ask] Entry CC(C1OC(C)(C)C(O)C1O)[C@@H]1CC[C@]2(C)C3=CCC4C(C)(C)C(=O)CC[C@]4(C)C3CC[C@@]12C (stereo partly drawn) : call = ?
[reply] -1

[ask] Please state the recorded outcome for this molecule: C[N+](C)(C)CC(O)CC(=O)O (stereo not drawn)
[reply] -1

[ask] Outcome logged for CC(C)N(CCC(C(N)=O)(c1ccccc1)c1ccccn1)C(C)C (stereo not drawn) in this assay:
[reply] -1

[ask] Record request — test call for `COc1c2ccoc2cc2oc(=O)ccc12`
[reply] 1

[ask] Short answer needed: outcome of this test for `COc1cc(OC)c2ccc(=O)oc2c1` ?
[reply] -1

====

assay: chemical genetic growth profiling, strain panel (AID 1159580);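 also: tested at 20 µM; growth read once vehicle control cultures reached saturation at 30 °C; 1 = growth at the plate median or of vehicle wells; lower values mean less growth of the strain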; details: S. cerevisiae deletion strains, growth OD, locus YJL134W, strain LCB3, active compounds read low
Hit rate of the full screen: of about 5,500 compounds, about 2,000 (36%) were called active. About 18% were inconclusive and are not listed. This is one part of the list.
PROPERTY NAME: normalized growth
Response field accepts a number only; no unit should be typed.

Look over these answered cases.
COc1ccc2ccc(=O)oc2c1 ... 1.01
COc1ccc2c3c1OC1C(O)CC=C4C(C2)N(C)CCC431 (stereo unspecified) ... 1.01
COc1cc(OC)c2ccc(=O)oc2c1 ... 1.01
COc1cc2occc2c2oc(=O)ccc12 ... 0.967
NC(=O)NCC(N)C(=O)O (stereo unspecified) ... 1.01

[ask] State, in one line, measured normalized growth of `CCc1cccc(CC)c1N(COC)C(=O)CCl`
[reply] 1.01

====

experiment: chemical genetic growth profiling, strain panel (AID 1159580);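 also: tested at 20 µM; growth read once vehicle control cultures reached saturation at 30 °C; 1 = growth at the plate median or of vehicle wells; lower values mean less growth of the strain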; settings: S. cerevisiae deletion strains, growth OD, locus YPL256C, strain CLN2, active compounds read low
Screen size: about 5,500 compounds; about 2,000 (36%) were called active. Not shown: some 18% with an inconclusive outcome. This is one part of the list.
PROPERTY NAME: normalized growth
# answer = number (no unit)

Field: example entries. Status: answers known.
COc1cc(OC)c2c(=O)c(O)c(-c3ccc(OC)c(OC)c3)oc2c1 ... 0.969
COc1cc(OC)c2c(=O)c(OC)c(-c3ccc(OC)c(OC)c3)oc2c1 ... 0.976

The record that follows has no normalized growth shown yet.
[ask] Check the records and state normalized growth for `O=C1[O][Bi][O]c2ccccc21`
[reply] 1

====

assay: chemical genetic growth profiling, strain panel (AID 1159580);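 also: tested at 20 µM; growth read once vehicle control cultures reached saturation at 30 °C; 1 = growth at the plate median or of vehicle wells; lower values mean less growth of the strain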; conditions: S. cerevisiae deletion strains, growth OD, locus YNL298W, strain CLA4, active compounds read low
Screen size: about 5,500 compounds; about 2,000 (36%) were called active. About 18% were inconclusive and are not listed. This is one part of the list.
PROPERTY NAME: normalized growth
Answer using only a numeral; do not append any unit.

Below, 8 compounds whose answers are already recorded.
C[C@@H]1CC[C@@]2(OC1)OC1CC3C4CC=C5C[C@@H](O)CC[C@]5(C)C4CC[C@]3(C)C1[C@@H]2C (stereo partly specified) ... 0.977
C[C@@H]1O[C@@H](OC[C@H]2OC(Oc3c(-c4ccc(O)c(O)c4)oc4cc(O)cc(O)c4c3=O)[C@H](O)[C@@H](O)[C@@H]2O)[C@H](O)[C@H](O)[C@H]1O (stereo partly specified) ... 0.982
CCN(Cc1ccncc1)C(=O)C(CO)c1ccccc1 (stereo unspecified) ... 1
CCCCCc1c2c(cc(O)c1C(=O)O)OC(=O)c1c(cc(OC)cc1C(=O)CCCC)O2 ... 0.959
CCCCCCCCCCCC1=C(O)C(=O)C=C(O)C1=O ... 0.66
CC(=O)OCC1=C(C(=O)O)N2C(=O)[C@@H](NC(=O)Cc3cccs3)[C@H]2SC1 ... 0.979
C[C@@H]1CC[C@@]2(OC1)O[C@H]1CC3C4CC[C@H]5C[C@@H](O)CC[C@]5(C)C4CC[C@]3(C)[C@H]1[C@@H]2C (stereo partly specified) ... 0.972
CC(C)(C)NCC(O)c1cc(Cl)c(N)c(Cl)c1 (stereo unspecified) ... 0.992

[ask] Give a short answer stating reported normalized growth for OCC(O)C(O)C(O)C(O)C(O)CO (stereo unspecified) .
[reply] 0.99

[ask] Could you please provide reported normalized growth for `COc1c2ccoc2cc2oc(=O)ccc12` ? Thanks!
[reply] 0.77

[ask] Input `NC(=O)CN1CCCC1=O` , output reported normalized growth.
[reply] 1.03

[ask] Return the recorded normalized growth value; entry: COC(=O)C[C@H]1C(C)(C)C2(Cl)O[C@@]34CC2C(=O)[C@]1(C)C3CC[C@]1(C)C4=CC(=O)O[C@H]1c1ccoc1 (stereo partly specified)
[reply] 0.99

[ask] Identify normalized growth associated with the compound `CN1C[C@H](C(=O)N[C@]2(C)O[C@@]3(O)[C@@H]4CCCN4C(=O)[C@H](Cc4ccccc4)N3C2=O)C[C@@H]2c3cccc4[nH]cc(c34)C[C@H]21`
[reply] 0.985

[ask] Output measured normalized growth for this item: `COc1ccc2ccc(=O)oc2c1`
[reply] 0.997

[ask] Respond only with normalized growth recorded for `CCOCN(C(=O)CCl)c1c(C)cccc1CC`
[reply] 0.968

[ask] Output normalized growth of CC1CC[C@]2(NC1)O[C@H]1CC3C4CC[C@H]5C[C@@H](O)CC[C@]5(C)C4CC[C@]3(C)[C@H]1[C@@H]2C (stereo partly specified)
[reply] 0.081

[ask] Tell me normalized growth reported for CC(CC(O)C1OC1(C)C)[C@@H]1CCC2(C)C3=CCC4C(C)(C)C(=O)CCC4(C)C3CC[C@@]12C (stereo partly specified)
[reply] 1.02
